Test system: 843782-103-R-J1-PDC complex spheroid viability
Assay Notes: Anticancer human tumor 843782-103-R-J1-PDC patient-derived lung adenocarcinoma cell line growth inhibition [RAS]
Setup Conditions: second compound 0.3 µM; first compound 0.01 µM; stronger effect = lower value
Property: viability, T/C

Problem: Which value of viability, T/C has been reported for C=CC(=O)Nc1cc(Nc2nccc(-c3cn(C)c4ccccc34)n2)c(OC)cc1N(C)CCN(C)C + CCn1c(-c2cccnc2C(C)OC)c2c3cc(ccc31)N1CCOC(CC(NC(=O)C(C(C)C)N(C)C(=O)C3(F)CCN(C(=O)C#CC(C)(C)N(C)C)CC3)C(=O)N3CCCC(N3)C(=O)OCC(C)(C)C2)C1 in the records?
Solution: 66.2%

Problem: Which value of viability, T/C has been reported for CC(C)n1nc(-c2ccc3oc(N)nc3c2)c2c(N)ncnc21 + CCn1c(-c2cccnc2C(C)OC)c2c3cc(ccc31)N1CCOC(CC(NC(=O)C(C(C)C)N(C)C(=O)C3(F)CCN(C(=O)C#CC(C)(C)N(C)C)CC3)C(=O)N3CCCC(N3)C(=O)OCC(C)(C)C2)C1 in the records?
Solution: 40.3%

Problem: Which value of viability, T/C has been reported for CC(C)n1nc(-c2ccc3oc(N)nc3c2)c2c(N)ncnc21 + CCn1c(-c2cc(N3CCN(C)CC3)cnc2C(C)OC)c2c3cc(ccc31)-c1csc(n1)CC(NC(=O)C1CC1C)C(=O)N1CCCC(N1)C(=O)OCC(C)(C)C2 in the records?
Solution: 9.85%

Problem: Which value of viability, T/C has been reported for Nc1ccn(C2OC(CO)C(O)C2(F)F)c(=O)n1 (centres undefined) + CCn1c(-c2cccnc2C(C)OC)c2c3cc(ccc31)N1CCOC(CC(NC(=O)C(C(C)C)N(C)C(=O)C3(F)CCN(C(=O)C#CC(C)(C)N(C)C)CC3)C(=O)N3CCCC(N3)C(=O)OCC(C)(C)C2)C1 in the records?
Solution: 62.7%

====

Tested on: 843782-103-R-J1-PDC complex spheroid viability
Assay Notes: Anticancer human tumor 843782-103-R-J1-PDC cell line growth inhibition [RAS];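 also: viability read after seven days of compound exposure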
Setup Conditions: second compound 10 µM; first compound 0.0316 µM; stronger effect = lower value
Property: viability, T/C

Problem: Which value of viability, T/C has been reported for O=C(c1ccc(F)c(F)c1Nc1ccc(I)cc1F)N1CC(O)([C@@H]2CCCCN2)C1 + C#Cc1c(F)ccc2cc(O)cc(-c3ncc4c(N5CC6CCC(C5)N6)nc(OCC56CCCN5CC(F)C6)nc4c3F)c12 in the records?
Solution: 34.5%

Problem: Which value of viability, T/C has been reported for Nc1ccn(C2OC(CO)C(O)C2(F)F)c(=O)n1 (stereo not given) + C#Cc1c(F)ccc2cc(O)cc(-c3ncc4c(N5CC6CCC(C5)N6)nc(OCC56CCCN5CC(F)C6)nc4c3F)c12 in the records?
Solution: 30.3%

Problem: Which value of viability, T/C has been reported for C[C@@H](NC(=O)c1ncnc(N)c1Cl)c1ncc(C(=O)Nc2cc(C(F)(F)F)c(Cl)cn2)s1 + C#Cc1c(F)ccc2cc(O)cc(-c3ncc4c(N5CC6CCC(C5)N6)nc(OCC56CCCN5CC(F)C6)nc4c3F)c12 in the records?
Solution: 73.3%

Problem: Which value of viability, T/C has been reported for CC(=O)OC12COC1CC(O)C1(C)C(=O)C(O)C3=C(C)C(OC(=O)C(O)C(NC(=O)OC(C)(C)C)c4ccccc4)CC(O)(C(OC(=O)c4ccccc4)C21)C3(C)C (stereo not given) + C#Cc1c(F)ccc2cc(O)cc(-c3ncc4c(N5CC6CCC(C5)N6)nc(OCC56CCCN5CC(F)C6)nc4c3F)c12 in the records?
Solution: 5.06%

Problem: Which value of viability, T/C has been reported for CCC(CC)c1cc(NC2CCC(N)C2)n2nccc2n1 (stereo not given) + C#Cc1c(F)ccc2cc(O)cc(-c3ncc4c(N5CC6CCC(C5)N6)nc(OCC56CCCN5CC(F)C6)nc4c3F)c12 in the records?
Solution: 67.2%

====

System: 843782-103-R-J1-PDC complex spheroid viability
Assay Notes: Anticancer human tumor 843782-103-R-J1-PDC cell line growth inhibition [RAS]; active = viability on the fitted dose curve at most 10% of control; inactive = the rest;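 also: viability read after seven days of compound exposure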
Setup Conditions: second compound 0.000949 µM; first compound 10 µM
I would appreciate it if you answered using one of these outcomes: active, inactive

Problem: Dear all, I need the recorded test outcome for CCC(CC)c1cc(NC2CCC(N)C2)n2nccc2n1 (configuration not stated) + CCn1c(-c2cccnc2C(C)OC)c2c3cc(ccc31)N1CCOC(CC(NC(=O)C(C(C)C)N(C)C(=O)C3(F)CCN(C(=O)C#CC(C)(C)N(C)C)CC3)C(=O)N3CCCC(N3)C(=O)OCC(C)(C)C2)C1 , thank you.
Solution: active

Problem: Dear all, I need the recorded test outcome for NC1c2ccccc2OC12CCN(c1cnc3c(N4CCCc5ncccc54)n[nH]c3n1)CC2 (configuration not stated) + CCn1c(-c2cccnc2C(C)OC)c2c3cc(ccc31)N1CCOC(CC(NC(=O)C(C(C)C)N(C)C(=O)C3(F)CCN(C(=O)C#CC(C)(C)N(C)C)CC3)C(=O)N3CCCC(N3)C(=O)OCC(C)(C)C2)C1 , thank you.
Solution: inactive

====

So I've got a bunch of compounds here, and I need their viability, T/C values.
System: 843782-103-R-J1-PDC complex spheroid viability
Assay Notes: Anticancer human tumor 843782-103-R-J1-PDC cell line growth inhibition [RAS];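 also: viability read after seven days of compound exposure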
Setup Conditions: second compound 0.003 µM; first compound 0.00949 µM; stronger effect = lower value
The reply should be a number in %, with the unit left off.

Problem: Which value of viability, T/C has been reported for CCc1c2c(nc3ccc(O)cc13)-c1cc3c(c(=O)n1C2)COC(=O)[C@]3(O)CC + CCn1c(-c2cccnc2C(C)OC)c2c3cc(ccc31)N1CCOC(CC(NC(=O)C(C(C)C)N(C)C(=O)C3(F)CCN(C(=O)C#CC(C)(C)N(C)C)CC3)C(=O)N3CCCC(N3)C(=O)OCC(C)(C)C2)C1 in the records?
Solution: 5.6

Problem: Which value of viability, T/C has been reported for CC1(C)CCC(Nc2ncc(C(F)(F)F)c(-c3c[nH]c4c(P(C)(C)=O)c(C#N)ccc34)n2)CN1 (centres undefined) + CCn1c(-c2cccnc2C(C)OC)c2c3cc(ccc31)N1CCOC(CC(NC(=O)C(C(C)C)N(C)C(=O)C3(F)CCN(C(=O)C#CC(C)(C)N(C)C)CC3)C(=O)N3CCCC(N3)C(=O)OCC(C)(C)C2)C1 in the records?
Solution: 32.3

Problem: Which value of viability, T/C has been reported for CCc1c2c(nc3ccc(O)cc13)-c1cc3c(c(=O)n1C2)COC(=O)[C@]3(O)CC + CCn1c(-c2cc(N3CCN(C)CC3)cnc2C(C)OC)c2c3cc(ccc31)-c1csc(n1)CC(NC(=O)C1CC1C)C(=O)N1CCCC(N1)C(=O)OCC(C)(C)C2 in the records?
Solution: 5.17

Problem: Which value of viability, T/C has been reported for CC1(C)CCC(Nc2ncc(C(F)(F)F)c(-c3c[nH]c4c(P(C)(C)=O)c(C#N)ccc34)n2)CN1 (centres undefined) + CCn1c(-c2cc(N3CCN(C)CC3)cnc2C(C)OC)c2c3cc(ccc31)-c1csc(n1)CC(NC(=O)C1CC1C)C(=O)N1CCCC(N1)C(=O)OCC(C)(C)C2 in the records?
Solution: 22.8

====

Tested on: 843782-103-R-J1-PDC complex spheroid viability
Assay Notes: Anticancer human tumor 843782-103-R-J1-PDC cell line growth inhibition [RAS];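 also: viability read after seven days of compound exposure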
Setup Conditions: second compound 0.01 µM; first compound 0.1 µM; stronger effect = lower value
So I've got a bunch of compounds here, and I need their viability, T/C values.
The reply should be a number in %, with the unit left off.

Problem: Checklist item: viability, T/C tested on 843782-103-R-J1-PDC complex spheroid viability, entry CC(C)n1nc(-c2ccc3oc(N)nc3c2)c2c(N)ncnc21 + C=CC(=O)N1CCN(c2nc(OCC3CCCN3C)nc3c(F)c(-c4nc(N)cc(C)c4C(F)(F)F)c(Cl)cc23)C(C)C1 , value?
Solution: 18.8

Problem: Checklist item: viability, T/C tested on 843782-103-R-J1-PDC complex spheroid viability, entry CC(Nc1ccc2c(c1)OCCn1cc(N3C(=O)OCC3C(F)F)nc1-2)C(N)=O (stereo not drawn) + C=CC(=O)N1CCN(c2nc(OCC3CCCN3C)nc3c(F)c(-c4nc(N)cc(C)c4C(F)(F)F)c(Cl)cc23)C(C)C1 , value?
Solution: 49.3

Problem: Checklist item: viability, T/C tested on 843782-103-R-J1-PDC complex spheroid viability, entry CC(C)NCC(C(=O)N1CCN(c2ncnc3c2C(C)CC3O)CC1)c1ccc(Cl)cc1 (stereo not drawn) + C=CC(=O)N1CCN(c2nc(OCC3CCCN3C)nc3c(F)c(-c4nc(N)cc(C)c4C(F)(F)F)c(Cl)cc23)C(C)C1 , value?
Solution: 85.1

Ref: PubChem BioAssay AID2060883
